test system: L1210 leukemia ip in BDF1 mice, survival T/C; test: NCI In Vivo Anticancer Drug Screen. Data for tumor model L1210 Leukemia (intraperitoneal) in B6D2F1 (BDF1) mice; details: endpoint: mean survival time; dose: 400.0 mg/kg/injection; schedule: Q01DX001 (ip); vehicle: saline; higher = longer survival
Inconclusive results and toxic doses are left out.
assay-endpoint: T/C

# annotated cases, reported T/C shown
{"compound": "O=C1OCC(O)=C1Cc1ccccc1", "T/C": "94 % of control"}
{"compound": "COC(=O)C1CCN(Cc2ccccc2)CC1=O (configuration not stated)", "T/C": "104 % of control"}
{"compound": "CC(C)(C)C(O)(C(=O)O)C(C)(C)C", "T/C": "100 % of control"}
{"compound": "Nc1nc2c([nH]c(=O)n2C2OC(CO)C(O)C2O)c(=O)n1N (configuration not stated)", "T/C": "96 % of control"}
{"compound": "O=C(CCCC(=O)NNC(=O)Nc1cccc(S(=O)(=O)F)c1)NNC(=O)Nc1cccc(S(=O)(=O)F)c1", "T/C": "112 % of control"}

Query: For the compound shown here, "O=Cc1[nH]c(=S)[nH]c(=O)c1Cc1ccc(Cl)cc1" , give the reported T/C.
Result: 96 % of control

Query: Same read-out for CC1(/C=N\NC(=O)CCCC(=O)N/N=C/C2(C)CCC=CO2)CCC=CO1 (configuration not stated) ?
Result: 97 % of control

Query: What about this compound? "O=C1Nc2ccc3c4c(ccc1c24)CC3"
Result: 98 % of control

Query: Check COc1ccc2c(c1OC)-c1c3c(cc4c1C(C2)N(C)CC4)OCO3 (configuration not stated) too.
Result: 96 % of control

Query: Field entry: "O=C1CCN(S(=O)(=O)c2ccccc2)c2ccccc21"
Result: 92 % of control

Query: Proceed to CCC(/C=N/NC(N)=O)c1ccccc1OC (configuration not stated)
Result: 109 % of control

Query: Ok, now "Oc1ccc2c(c1)Cc1cc3ccccc3nc1-2"
Result: 93 % of control

---

# T/C values compiled below
tested on: L1210 leukemia ip in BDF1 mice, survival T/C; assay: NCI In Vivo Anticancer Drug Screen. Data for tumor model L1210 Leukemia (intraperitoneal) in B6D2F1 (BDF1) mice; conditions: endpoint: mean survival time; dose: 100.0 mg/kg/injection; schedule: Q01DX001 (ip); vehicle: other; higher = longer survival
Inconclusive results and toxic doses are left out.

Query: # query: T/C of entry "O=C1C(=O)c2ccccc2C(O)=C1CCCCCCCCCC[S+](CCO)CCO"
Result: 104 % of control

Query: CCCCCCCCCCCCCCCCCC[N+](CCCC)(CCCC)CCCCCCCCCCCCCCCCCC (tested in a mixture with another compound) ?
Result: 93 % of control

Query: Please answer likewise for "O=C(OC1CCCCC1)c1ccccc1-c1ccccc1C(=O)OC1CCCCC1"
Result: 91 % of control

Query: Now the same for "CCCCCNC(=O)CCC(=O)NCCCCC"
Result: 98 % of control

Query: Please answer likewise for "Cc1cc(C)c2[nH]c(=O)c(Br)c(C)c2c1"
Result: 93 % of control

---

system: L1210 leukemia ip in BDF1 mice, survival T/C; experiment: NCI In Vivo Anticancer Drug Screen. Data for tumor model L1210 Leukemia (intraperitoneal) in B6D2F1 (BDF1) mice; conditions: endpoint: mean survival time; dose: 200.0 mg/kg/injection; schedule: Q04DX003 (ip); vehicle: saline with Tween-80; higher = longer survival
Inconclusive results and toxic doses are left out.
assay-endpoint: T/C

{"compound": "c1ccc(C2=NC3CCCCC3N=C2c2ccccc2)cc1 (stereo not drawn)", "T/C": "95 % of control"}
{"compound": "O=[N+]([O-])c1ccc(N/N=C(\\Cc2ccccc2)c2ccccc2)c([N+](=O)[O-])c1", "T/C": "91 % of control"}
{"compound": "CC(O)c1cc(Cl)ccc1Cl (stereo not drawn)", "T/C": "107 % of control"}
{"compound": "CCc1ccc(C(=O)C2CC2)cc1", "T/C": "96 % of control"}
{"compound": "O=C(NCc1ccccc1)C1C2C=CC(CC2)C1C(=O)NCc1ccccc1 (stereo not drawn)", "T/C": "96 % of control"}
{"compound": "CCc1c(C)nc(N)[nH]c1=O", "T/C": "106 % of control"}

Query: I'd like to know its T/C. The compound in question is "O=C1CCCCCCCCC(=O)CCCCCCCC1"
Result: 86 % of control

Query: Another compound: CCOC(=O)C(CCSC(C)=O)SC(C)=O (stereo not drawn)
Result: 92 % of control

Query: Here is the next compound: "Cc1ccc(S(=O)(=O)N/N=C/c2ccccc2C)cc1"
Result: 95 % of control

Query: How about S=c1nc[nH]c2c1CP(c1ccccc1)CC2 (stereo not drawn) ?
Result: 100 % of control

These entries and their values trace back to PubChem BioAssay AID248.
